Source of measurements: patent US8067408B2

// melting point lookup, one value per entry
Counter-ions that a name gives are not always drawn.
recorded.metric: melting point

1) CCc1nc2c(cnn2CC)c(NC2CCOCC2)c1CNC(=O)c1cccc(C(=O)NCc2ccc(F)c(-c3cccc(CN4CCNC(=O)C4)c3)c2)c1 | 147 to 150 °C
2) CCc1nc2c(cnn2CC)c(NC2CCOCC2)c1CNC(=O)c1cc(C)cc(C(=O)NCc2ccc(OC)c(-c3cccc(CN4CCN[C@@H](C)C4)c3)c2)c1 | 121 to 123 °C
3) CCc1nc2c(cnn2CC)c(NC2CCOCC2)c1CNC(=O)c1cccc(C(=O)NCc2ccc(C)c(-c3cccc(CN4CCCNCC4)c3)c2)c1 | 118 to 120 °C
4) CCc1nc2c(cnn2CC)c(NC2CCOCC2)c1CNC(=O)c1cccc(C(=O)NCc2ccc(Cl)c(-c3cccc(CN4CCCN(C)CC4)c3)c2)c1 | 105 to 107 °C
5) CCc1nc2c(cnn2CC)c(NC2CCOCC2)c1CNC(=O)c1cccc(C(=O)NCc2ccc(F)c(-c3cccc(CN4CCCNCC4)c3)c2)c1 | 145 to 148 °C
6) CCc1nc2c(cnn2CC)c(NC2CCOCC2)c1CNC(=O)c1cc(C)cc(C(=O)NCc2ccc(OC)c(-c3cccc(CC4CCN(C)CC4)c3)c2)c1 | 115 to 117 °C
7) CCc1nc2c(cnn2CC)c(NC2CCOCC2)c1CNC(=O)c1cccc(C(=O)NCc2ccc(F)c(-c3cccc(CN4CCN(CC)CC4)c3)c2)c1 | 155 to 158 °C
8) CCc1nc2c(cnn2CC)c(NC2CCOCC2)c1CNC(=O)c1cccc(C(=O)NCc2ccc(C)c(-c3cccc(CN4CCN(C)CC4)c3)c2)c1 | 121 to 124 °C
9) CCc1nc2c(cnn2CC)c(NC2CCOCC2)c1CNC(=O)c1cc(C)cc(C(=O)NCc2ccc(Cl)c(-c3cccc(C=O)c3)c2)c1 | 153 to 156 °C
10) CCc1nc2c(cnn2CC)c(NC2CCOCC2)c1CNC(=O)c1cccc(C(=O)O)c1 | 207 to 209 °C
11) CCc1nc2c(cnn2CC)c(NC2CCOCC2)c1CNC(=O)c1cccc(C(=O)NCc2ccc(F)c(-c3cccc(CN4CCN[C@@H](C)C4)c3)c2)c1 (as salt: TFA) | 100 to 113 °C
12) CCc1nc2c(cnn2CC)c(NC2CCOCC2)c1CNC(=O)c1cc(C)cc(C(=O)NCc2ccc(F)c(-c3cccc(C=O)c3)c2)c1 | 107 to 110 °C
13) CCc1nc2c(cnn2CC)c(NC2CCOCC2)c1CNC(=O)c1cccc(C(=O)NCc2ccc(F)c(-c3cccc(CN(C)CCN(C)C)c3)c2)c1 | 126 to 129 °C
14) CCc1nc2c(cnn2CC)c(NC2CCOCC2)c1CNC(=O)c1cccc(C(=O)NCc2ccc(C)c(-c3cccc(CN4C[C@@H]5C[C@H]4CN5)c3)c2)c1 | 138 to 140 °C
15) CCc1nc2c(cnn2CC)c(NC2CCOCC2)c1CNC(=O)c1cccc(C(=O)NCc2ccc(OC)c(-c3cccc(CN4CCNCC4)c3)c2)c1 | 138 to 140 °C
16) CCc1nc2c(cnn2CC)c(NC2CCOCC2)c1CNC(=O)c1cccc(C(=O)NCc2ccc(F)c(-c3cccc(CN4C[C@@H]5C[C@H]4CN5)c3)c2)c1 | 129 to 133 °C
17) CCc1nc2c(cnn2CC)c(NC2CCOCC2)c1CNC(=O)c1cc(C)cc(C(=O)NCc2cccc(-c3cccc(C=O)c3)c2)c1 | 109 to 112 °C
18) CCc1nc2c(cnn2CC)c(NC2CCOCC2)c1CNC(=O)c1cccc(C(=O)NCc2ccc(F)c(-c3cccc(CN4C[C@@H]5C[C@H]4CN5C(=O)OC(C)(C)C)c3)c2)c1 | 119 to 123 °C
19) CCc1nc2c(cnn2CC)c(NC2CCOCC2)c1CNC(=O)c1cccc(C(=O)NCc2ccc(Cl)c(-c3cccc(CN4CCN[C@@H](C)C4)c3)c2)c1 [Example 214] | 117 to 120 °C
20) CCc1nc2c(cnn2CC)c(NC2CCOCC2)c1CNC(=O)c1cccc(C(=O)NCc2ccc(F)c(-c3cccc(CN4CCCCC4)c3)c2)c1 | 128 to 131 °C
21) CCc1nc2c(cnn2CC)c(NC2CCOCC2)c1CNC(=O)c1cccc(C(=O)NCc2ccc(OC)c(-c3cccc(CN4CCCN(C)CC4)c3)c2)c1 | 116 to 119 °C
22) CCc1nc2c(cnn2CC)c(NC2CCOCC2)c1CNC(=O)c1cccc(C(=O)NCc2ccc(Cl)c(-c3cccc(CN4C[C@@H](C)N[C@@H](C)C4)c3)c2)c1 | 121 to 124 °C
23) CCc1nc2c(cnn2CC)c(NC2CCOCC2)c1CNC(=O)c1cccc(C(=O)NCc2ccc(Cl)c(-c3cccc(CN4CCN[C@@H](C)C4)c3)c2)c1 [Example 215] | 116 to 118 °C
24) CCc1nc2c(cnn2CC)c(NC2CCOCC2)c1CNC(=O)c1cccc(C(=O)NCc2cc(Cl)cc(-c3cccc(CN4C[C@@H]5C[C@H]4CN5)c3)c2)c1 | 130 to 133 °C
